assayEndpoint: melting point

Enquiry: Kindly indicate its recorded melting point. Item: COc1ccc(NS(=O)(=O)/C(C#N)=C/c2ccc(O)cc2)cc1
Return: 181 to 182 °C

Enquiry: Kindly indicate its recorded melting point. Item: COc1ccc(CS(=O)(=O)/C(C#N)=C/c2ccc(N)cc2)cc1
Return: 140 to 142 °C

Enquiry: Kindly indicate its recorded melting point. Item: COc1ccccc1/C=C(\C#N)S(=O)(=O)Nc1ccc(F)cc1
Return: 152 to 154 °C

Enquiry: Kindly indicate its recorded melting point. Item: N#C/C(=C\c1ccccc1O)S(=O)(=O)Cc1ccc(Cl)cc1Cl
Return: 219 to 223 °C

Enquiry: Kindly indicate its recorded melting point. Item: CCOc1ccc(/C=C(\C#N)S(=O)(=O)Nc2ccc(C)cc2C)cc1OC
Return: 146 to 150 °C
